B1: library; a variant is named by its letters at N, in order (parent)
chain: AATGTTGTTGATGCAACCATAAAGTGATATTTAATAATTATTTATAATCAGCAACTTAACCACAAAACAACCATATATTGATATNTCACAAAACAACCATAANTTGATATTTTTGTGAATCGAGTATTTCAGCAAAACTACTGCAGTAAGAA

variants of: B1; experiment: relative integration efficiency (T-RL orientation) vs wild-type transposon end (log2 (normalized fold change)); transposon end mutated: left end; higher = more efficient transposition; conditions: with VchCAST RNA-guided transposition machinery (E. coli BL21(DE3) host, lacZ target)
Record rule met whenever relative integration efficiency (log2) is at -0.1 or higher; record rule not met when lower.

Answered examples (8):
CG A19G: rule not met
CG T5A T6A: rule not met
CG A66T A67T C68G A69T: rule not met
CG A62G: rule met
CG A75G: rule not met
CG C94G A95T A96T C97G: rule not met
CG A83T: rule not met
CG A67T: rule not met

# input Entry TA G24A T30A A70C T76A T86G A96C T110A T113A : is its relative integration efficiency (log2) no less than -0.1?
# output rule not met

# input Entry CG A107G : is its relative integration efficiency (log2) no less than -0.1?
# output rule not met

# input Entry CG A40C : is its relative integration efficiency (log2) no less than -0.1?
# output rule met

# input Entry CG C72A A73C T74G A75C : is its relative integration efficiency (log2) no less than -0.1?
# output rule not met

# input Entry TA A23G G24T A33T T76A T78G C87A A102T T111C T113C : is its relative integration efficiency (log2) no less than -0.1?
# output rule not met

# input Entry TG G24A T30A A70C T76A T84A C87A : is its relative integration efficiency (log2) no less than -0.1?
# output rule not met

# input Entry TA A23G G24T A33T T76A A77G C87T A96C T110A T113A : is its relative integration efficiency (log2) no less than -0.1?
# output rule not met
